molecular target: p38 MAPKα isoform (MAPK14: Invitrogen) (Homo sapiens, UniProt Q16539); assay: p38 MAPKα enzyme inhibition assay (FRET, Z-LYTE, via MAPKAP-K2 activation); settings: 2 hr pre-incubation, ATP 10.0 μM; read-out: Enzyme Inhibition IC50 p38α
Sequence (Q16539 whole entry, canonical isoform): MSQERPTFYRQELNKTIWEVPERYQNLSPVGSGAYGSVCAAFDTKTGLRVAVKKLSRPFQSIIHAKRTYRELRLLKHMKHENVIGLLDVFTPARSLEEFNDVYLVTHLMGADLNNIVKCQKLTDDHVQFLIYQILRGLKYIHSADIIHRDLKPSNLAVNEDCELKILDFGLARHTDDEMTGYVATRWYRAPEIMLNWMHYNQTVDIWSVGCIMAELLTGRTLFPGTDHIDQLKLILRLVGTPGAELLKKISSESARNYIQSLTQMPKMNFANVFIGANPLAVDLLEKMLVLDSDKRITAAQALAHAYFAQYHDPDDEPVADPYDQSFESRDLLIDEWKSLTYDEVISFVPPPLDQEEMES
pIC50: −log10 of the molar value.
quantityMeasured: pIC50

A selection of reference data follows.
> print(dat)
                                   compound  quantitymeasured  result
1  COCC(=O)Nc1cc(Oc2ccc(NC(=O)Nc3cc(C(C)(C)C)nn3-c3ccc(Cl)c(Cl)c3)c3ccccc23)ccn1 [Example 55]             pIC50    7.83
2  CNC(=O)Nc1cc(Oc2ccc(NC(=O)Nc3cc(C(C)(C)C)nn3-c3ccc(O)nc3)c(C)c2C)ccn1 [Example 62]             pIC50    7.83
3  COCC(=O)Nc1cc(Oc2ccc(NC(=O)Nc3cc(C(C)(C)C)nn3-c3ccc(OC)cc3)c3ccccc23)ccn1 [Example 3]             pIC50    7.81

[I] CC(C)(C)c1cc(NC(=O)Nc2ccc(Oc3ccnc(NC(=O)NC4CC4)c3)c3ccccc23)n(-c2ccc(S(C)(=O)=O)cc2)n1 [Example 47]
[II] COCC(=O)Nc1cc(Cc2ccc(NC(=O)Nc3cc(C(C)(C)C)nn3-c3ccc(C)cc3)c3ccccc23)ccn1 [Example 64]
[III] CC(C)(C)c1cc(NC(=O)Nc2ccc(Oc3ccnc(NC(=O)N4CCOCC4)c3)c3ccccc23)n(-c2ccc(O)c(Cl)c2)n1 [Example 12]
Rank descending by pIC50. Arrange the labels as the request states and list them.
III, I, II
(III: 8.57, I: 8.08, II: 7.77)
